# Test system: Saccharomyces cerevisiae
# experimental-details: protein stability index of tFT-peptide fusion (C-terminal peptide) (PSI (0-1 scale)); higher = more stable (slower turnover)
# conditions: genetic background: das1 deletion; temperature: 30 C
endpoint-label: protein stability index
Quick one: just the number, no unit, thanks!

Below: 8 sequences and their reported protein stability index.
| monomer-sequence | protein stability index |
| --- | --- |
| DAFTDPRQYHLT [BUD19 C-terminal 12 aa] | 0.717 |
| NGANIFITSALT [YGL176C C-terminal 12 aa] | 0.691 |
| LDYALVEMDKLF [UTP13 C-terminal 12 aa] | 0.708 |
| KDEDEEADEDMK [PRE9 C-terminal 12 aa] | 0.711 |
| PPAGIPPPPPLP [PAN1 C-terminal 12 aa] | 0.719 |
| LDMAVIDNTTHN [SDO1 C-terminal 12 aa] | 0.712 |
| KVFDRSGIVLEK [QRI1 C-terminal 12 aa] | 0.71 |
| IFMCIILANKHF [YFR052C-A C-terminal 12 aa] | 0.342 |

Here is another sequence to look at.
Prompt: For the sequence EQLGHASKRHKP [RPP1 C-terminal 12 aa] , what protein stability index is on record?
Response: 0.694

* * *

# Tested on: Saccharomyces cerevisiae
# experimental-details: protein stability index of tFT-peptide fusion (C-terminal peptide) (PSI (0-1 scale)); higher = more stable (slower turnover)
# conditions: genetic background: cdc34-1; temperature: 37 C
endpoint-label: protein stability index
Quick one: just the number, no unit, thanks!

Below: 6 sequences and their reported protein stability index.
| monomer-sequence | protein stability index |
| --- | --- |
| GKHILLISLNIT | 0.281 |
| RVSECVSVVGWM | 0.678 |
| RPPPYSPRLFHN | 0.469 |
| VVFRCSSFFCLV | 0.54 |
| GWMLVVWCGVFG | 0.174 |
| WFYLLFVLFGLV | 0.56 |

Prompt: Observed protein stability index on Saccharomyces cerevisiae for TCRLIQLTVTLH , please.
Response: 0.312

Prompt: Queued: TRSLLFANRCIV
Response: 0.66

Prompt: Queued: FILLFGFSHWVW
Response: 0.449

Prompt: Queued: LLGGFAAFWRIL
Response: 0.631

Prompt: Queued: LWYVQILNIVLN
Response: 0.31

Prompt: Queued: NYVFRIIIVLDA
Response: 0.269

Prompt: Queued: RRSRLYKKAGLM
Response: 0.609

Prompt: Queued: GGGWGGRWGRLC
Response: 0.639

* * *

# Test system: Saccharomyces cerevisiae
# experimental-details: protein stability index of tFT-peptide fusion (C-terminal peptide) (PSI (0-1 scale)); higher = more stable (slower turnover)
# conditions: genetic background: wild type; temperature: 30 C
endpoint-label: protein stability index

Prompt: For the sequence LSLFCFFLLVLF , what protein stability index is on record?
Response: 0.228

Prompt: Queued: MGKEELDKKDEG
Response: 0.625

* * *

# System: Saccharomyces cerevisiae
# experimental-details: protein stability index of tFT-peptide fusion (C-terminal peptide) (PSI (0-1 scale)); higher = more stable (slower turnover)
# conditions: genetic background: wild type; temperature: 30 C
Quick rule for you: protein stability index at 0.7 or higher means yes, lower means no.

See these solved cases before continuing.
| monomer-sequence | cat |
| --- | --- |
| MKRRSEGDLLQP | no |
| FRYLRPAFLLLH | no |
| LPHPPTPPLPRP | no |
| GGVGRGVGRGWG | no |
| CTQCCSGARLFM | no |
| VSGASHLCQYIK | yes |
| APRPSYSLLALL | no |
| PFRPPPRFPPPV | yes |
| IKRYYLDSMKRK | no |
| LFLLPPLLPLPP | yes |

Prompt: Has KAKKLRKKNENK a recorded protein stability index greater than or equal to 0.7?
Response: no

Hello, the source for this data is the supplement of paper PMC10724198, in case you need it.
